Recorded DC50 by entry
- Assay target: PIP4K2C (Homo sapiens, UniProt Q8TBX8)
- Sequence (Q8TBX8 1-421): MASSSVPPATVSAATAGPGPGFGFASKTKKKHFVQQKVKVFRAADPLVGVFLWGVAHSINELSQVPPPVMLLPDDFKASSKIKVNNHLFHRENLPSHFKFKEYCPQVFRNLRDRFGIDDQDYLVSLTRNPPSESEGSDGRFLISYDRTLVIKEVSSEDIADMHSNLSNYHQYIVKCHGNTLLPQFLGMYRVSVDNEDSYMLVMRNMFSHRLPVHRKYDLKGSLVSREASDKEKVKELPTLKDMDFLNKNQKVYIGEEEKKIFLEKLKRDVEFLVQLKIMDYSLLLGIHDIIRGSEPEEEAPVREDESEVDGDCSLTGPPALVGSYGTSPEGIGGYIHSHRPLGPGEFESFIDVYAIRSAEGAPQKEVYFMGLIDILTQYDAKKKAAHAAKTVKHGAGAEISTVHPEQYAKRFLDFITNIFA
- Measurement protocol: HiBiT PIP4K2C degradation assay in MOLT-4 cells (endogenous PIP4K2C C-terminally tagged with HiBiT)
- Type: cell-based
- Set-up: untagged in primary human PBMCs and monocyte-derived dendritic cells
- Reported conditions: 24 hours incubation, MOLT-4, top concentration 10 micromolar; read-out: HiBIT-degradation MOLT4 PIP4k2C 24 hours DC50

Here's what some known entries look like.
Molecule	DC50
O=C1CCC(n2c(=O)oc3cc(C4CCN(CCC5CCN(C(=O)[C@@H]6CCC[C@H](Nc7ncc(F)c(-c8cccc(N9CCCOC9=O)c8)n7)C6)CC5)CC4)ccc32)C(=O)N1 (stereo partly shown) [Compound 355]	500 to 1000 nM
O=C1CCC(n2c(=O)oc3cc(C4CCN(CCC5CCN(C(=O)[C@H]6CC[C@H](Nc7ncc(F)c(-c8cccc(-c9ccc[nH]c9=O)c8)n7)CC6)CC5)CC4)ccc32)C(=O)N1 (stereo partly shown) [Compound 368]	< 500 nM
O=C(COc1cccc2c1CN(C1CCC(=O)NC1=O)C2=O)NCCCCC(=O)N1CCC(C(=O)N2CCC(Nc3ncc(Cl)c(-c4cccc(-c5ccccc5)c4)n3)CC2)CC1 (stereo not shown) [Compound 69]	< 500 nM

Give DC50 for Cn1c(=O)n(C2CCC(=O)NC2=O)c2ccc(C3CCN(C4CCCN(CC(=O)N5CCC(Nc6ncc(Cl)c(-c7cccc(-c8ccc(F)cc8)c7)n6)CC5)C4)CC3)cc21 (stereo not shown) [Compound 275] < 500 nM

For the molecule O=C1CCC(N2Cc3cc(C4CCN(CCN5CCC(C(=O)N6CCC(Nc7ncc(Cl)c(-c8cccc(-c9ccccc9)c8)n7)CC6)CC5)CC4)ccc3C2=O)C(=O)N1 (stereo not shown) [Compound 88] , report DC50. < 500 nM

Please report the measured DC50 for O=C1CCC(N2Cc3cc(OC4CCN(C(=O)C5CCN(C(=O)C6CCC[C@@H](Nc7ncc(Cl)c(-c8cccc(-c9ccccc9)c8)n7)C6)CC5)CC4)ccc3C2=O)C(=O)N1 (stereo in doubt) [Compound 77] < 500 nM

Quote DC50 reported for O=C1CCC(N2Cc3cc(OC4CCN(C(=O)CN5CCN(C(=O)[C@H]6CCC[C@@H](Nc7ncc(Cl)c(-c8cccc(-c9ccccc9)c8)n7)C6)CC5)CC4)ccc3C2=O)C(=O)N1 (relative stereo) [Compound 82] please. < 500 nM

# return recorded DC50 for entry O=C1CCC(n2c(=O)oc3cc(C4CCN(CC5CCN(CC(=O)N6CCC(Nc7ncc(Cl)c(-c8cccc(-n9ccccc9=O)c8)n7)CC6)CC5)CC4)ccc32)C(=O)N1 (stereo not shown) [Compound 373] > 5000 nM

Supply DC50 value. Item: O=C1CCC(Nc2ccc(C3CCN(CC(=O)N4CCC5(C4)CN(C(=O)[C@H]4CCC[C@@H](Nc6ncc(Cl)c(-c7cccc(-c8ccc(F)cc8)c7)n6)C4)C5)CC3)c(F)c2)C(=O)N1 (relative stereo) [Compound 284] < 500 nM

Tell me its DC50 given O=C1CCC(Nc2ccc(C3CCN(CC4CCN(C(=O)[C@H]5CCC[C@@H](Nc6ncc(Cl)c(-c7cccc(-c8ccccc8)c7)n6)C5)CC4)CC3)cc2)C(=O)N1 (relative stereo) [Compound 65] as the entry. < 500 nM

---

# IC50 per record follows
- Assay target: PIP4K2C (Homo sapiens)
- Measurement protocol: Enzyme Binding Assay (KINOMEscan): active site-directed competition binding to an immobilized ligand
- Reported conditions: 11-point dose response, duplicate, top concentration 5 micromolar; read-out: Pip4k2c Kd: IC50

# count of solved cases: 6
Molecule	Quantity name	Endpoint result
CC(=O)N1CCCC(Nc2ncc(Cl)c(-c3ccc(F)cc3)n2)C1 (stereo not shown) [Compound 26]	IC50	500 to 1000 nM
CC(=O)N[C@H]1CC[C@H](Nc2ncc(F)c(-c3ccnc(N4CCCOC4=O)c3)n2)CC1 [Compound 266]	IC50	< 500 nM
CNC(=O)[C@H]1C[C@@H](Nc2ncc(Cl)c(-c3cccc(-c4ccc(F)cc4)n3)n2)C1 [Compound 115]	IC50	< 500 nM
CC(=O)N1CCC(CC(=O)N2CCC(Nc3ncc(Cl)c(-c4cccc(-c5ccccc5)c4)n3)CC2)CC1 [Compound 6]	IC50	< 500 nM
CC(=O)N1CCC(Nc2ncc(F)c(-c3cccc(N4CCOCC4=O)c3)n2)CC1 [Compound 206]	IC50	< 500 nM
CC(=O)N[C@H]1CC[C@H](Nc2ncc(F)c(N3CCC[C@@H](C(=O)NC4CC4)C3)n2)CC1 [Compound 197]	IC50	1000 to 5000 nM

Supply IC50 value. Item: CC(=O)N[C@H]1CC[C@H](Nc2ncc(F)c(-c3cccc(-n4cc(C(F)(F)F)ccc4=O)c3)n2)CC1 [Compound 234] < 500 nM

Given the molecule CC(=O)N[C@H]1CC[C@H](Nc2ncc(Cl)c(-c3cccc(-c4ccc[nH]c4=O)c3)n2)CC1 [Compound 154] , write its reported IC50. < 500 nM

---

Catalogue of compounds with associated DC50
- Assay target: PIP4K2C (Homo sapiens)
- Measurement protocol: HiBiT PIP4K2C degradation assay in MOLT-4 cells (endogenous PIP4K2C C-terminally tagged with HiBiT)
- Type: cell-based
- Design: untagged in primary human PBMCs and monocyte-derived dendritic cells
- Reported conditions: 6 hours of incubation time, rather than 24 hours; MOLT-4, top concentration 10 micromolar; read-out: HiBIT-degradation MOLT4 PIP4k2C DC50 (6 hours, marked *)
- Procedure: Example B-2: HiBiT PIP4K2C degradation assay […] To study PIP4K2C degradation, 384-well plates were plated with a 10-point dose response curve, 3-fold dilution, in duplicate with a top starting concentration of 10 micromolar. […] Luminescence was measured with a PHERAstar FSX plate reader (BMG Labtech, Cary, NC). […]

Compound	Assay target	DC50
O=C1CC[C@@H](Nc2ccc(N3CCN([C@H]4CC[C@H](C(=O)N[C@H]5CC[C@H](Nc6ncc(F)c(-c7cccc(N8CCCCC8=O)c7)n6)CC5)CC4)CC3)c(F)c2)C(=O)N1 (single isomer, unassigned) [Compound 445]	PIP4K2C (Homo sapiens)	< 500 nM
O=C1CC[C@@H](Nc2ccc(C3CCN([C@H]4CC[C@H](NC(=O)[C@H]5CC[C@H](Nc6ncc(F)c(-c7cccc(-c8ccc[nH]c8=O)c7)n6)CC5)CC4)CC3)c(F)c2)C(=O)N1 (single isomer, unassigned) [Compound 419]	PIP4K2C (Homo sapiens)	< 500 nM

Note DC50 for the compound shown: O=C1CCC(Nc2ccc(N3CCC(CN4CCN(C(=O)[C@H]5CC[C@H](Nc6ncc(F)c(-c7cccc(-n8ccccc8=O)c7)n6)CC5)CC4)CC3)c(F)c2)C(=O)N1 (stereo partly shown) [Compound 387] < 500 nM

Identify DC50 associated with the compound O=C1CCC(Nc2ccc(C3CCN([C@H]4CC[C@H](C(=O)N[C@H]5CC[C@H](Nc6ncc(F)c(-c7cccc(N8CCOCC8=O)c7)n6)CC5)CC4)CC3)c(F)c2)C(=O)N1 (stereo partly shown) [Compound 568] < 500 nM

Look up and report measured DC50 for this entry: O=C1CCC(Nc2ccc(N3CCC(CN4CCN(C(=O)[C@H]5CC[C@H](Nc6ncc(F)c(-c7cccc(-c8ccc[nH]c8=O)c7)n6)CC5)CC4)CC3)c(F)c2)C(=O)N1 (stereo partly shown) [Compound 430] < 500 nM

Note DC50 for the compound shown: O=C1CC[C@@H](Nc2ccc(N3CCC(N4CCC(NC(=O)[C@H]5CC[C@H](Nc6ncc(F)c(-c7cccc(-n8ccccc8=O)c7)n6)CC5)CC4)CC3)c(F)c2)C(=O)N1 [Compound 440] < 500 nM

Please supply the value of reported DC50 for the item O=C1CCC(Nc2ccc(N3CCC(N4CCC(C(=O)N[C@H]5CC[C@H](Nc6ncc(F)c(-c7cccc(N8CCCCC8=O)c7)n6)CC5)CC4)CC3)c(F)c2)C(=O)N1 (stereo partly shown) [Compound 587] < 500 nM
